Known TRZAWR herbicidal rating of a selection of compounds
System: TRZAWR (Wheat, Winter, cv Riband)
PROTOCOL_SUMMARY: Postemergence herbicidal evaluation
Format: in vivo, Triticum aestivum
CONDITION_LABEL: postemergence, rate 0.0158 kg/ha
Experimental: In the tests, seedling plants are grown in jiffy flats for about two weeks. The test compounds are dispersed in 50/50 acetone/water mixtures containing 0.5% TWEEN®20, a polyoxyethylene sorbitan monolaurate surfactant of Atlas Chemical Industries, in sufficient quantities to provide the equivalent of about 0.0156 kg to 0.500 kg per hectare of active compound when applied to the plants through a spray nozzle operating at 40 psi for a predetermined time. […]
Just the number, please, no unit after it.

Here is how some compounds turned out for TRZAWR herbicidal rating.
CCOC(=O)[C@H](Cc1ccccc1)N1C(=O)CSC1=Nc1cc(-n2c(=O)cc(C(F)(F)F)n(C)c2=O)c(F)cc1Cl :: 3.5
CN(C)N1C(=O)CSC1=Nc1cc(-n2c(=O)cc(C(F)(F)F)n(C)c2=O)c(F)cc1Cl :: 2.5
C[C@H](C(=O)O)N1C(=O)CSC1=Nc1cc(-n2c(=O)cc(C(F)(F)F)n(C)c2=O)c(F)cc1Cl :: 2.5
COC(=O)C(Cc1ccc(Cl)cc1)N1C(=O)CSC1=Nc1cc(-n2c(=O)cc(C(F)(F)F)n(C)c2=O)c(F)cc1Cl (racemic) :: 3.0
C=CCOC(=O)CC1SC(=Nc2cc(-n3c(=O)cc(C(F)(F)F)n(C)c3=O)c(F)cc2Cl)N(CC=C)C1=O (stereo not drawn) :: 4.0

Input: What does the record list as TRZAWR herbicidal rating for CN1C(=O)C(CC(=O)OCCF)SC1=Nc1cc(-n2c(=O)cc(C(F)(F)F)n(C)c2=O)c(F)cc1Cl (stereo not drawn) ?
Output: 5.0

###

Catalogue of compounds with associated herbicidal effect rating, CYPSE
System: CYPSE (Flatsedge)
PROTOCOL_SUMMARY: Preemergence weed control under flooded paddy conditions
Format: in vivo, Cyperus serotinus
CONDITION_LABEL: 0.2500 kg/ha, rated 3-4 weeks after treatment
I'd appreciate a reply containing only the number, no unit.

Here are 5 compounds together with their reported answers.
CCOC(=O)CN1C(=O)C(C(=O)OC)SC1=Nc1cc(-n2c(=O)cc(C(F)(F)F)n(C)c2=O)c(F)cc1Cl (stereo not drawn) :: 3.0
Cn1c(C(F)(F)F)cc(=O)n(-c2cc(N=C3SCC(=O)N3Cc3cccnc3)c(Cl)cc2F)c1=O :: 0.0
Cc1ccccc1CN1C(=O)CSC1=Nc1cc(-n2c(=O)cc(C(F)(F)F)n(C)c2=O)c(F)cc1Cl :: 9.0
CC(C)S(=O)(=O)NC(=O)CC1SC(=Nc2cc(-n3c(=O)cc(C(F)(F)F)n(C)c3=O)c(F)cc2Cl)N(C)C1=O (stereo not drawn) :: 1.0
CCOC(=O)CN1C(=O)C(COC)SC1=Nc1cc(-n2c(=O)cc(C(F)(F)F)n(C)c2=O)c(F)cc1Cl (stereo not drawn) :: 0.0

Here is the next item to consider.
Input: Recorded herbicidal effect rating, CYPSE of "Cn1c(C(F)(F)F)cc(=O)n(-c2cc(N=C3SCC(=O)N3Cc3ccncc3)c(Cl)cc2F)c1=O" , please.
Output: 1.0

###

Reported Preemergence herbicidal rating TRZAWR values for a set of compounds
System: TRZAWR (Wheat, Winter, cv Riband)
PROTOCOL_SUMMARY: Preemergence herbicidal evaluation
Format: in vivo, Triticum aestivum
CONDITION_LABEL: 0.0313 kg/ha, rated 4-5 weeks after treatment
Simply state the number, no unit and no words.

CCOC(=O)CN1C(=O)C(CC(=O)O)SC1=Nc1cc(N2C(=O)CC(C(F)(F)F)CC2=O)c(F)cc1Cl (stereo not shown) [Compound 170] :: 6.0
CCOC(=O)CN1C(=O)C(OC)SC1=Nc1cc(-n2c(=O)cc(C(F)(F)F)n(C)c2=O)c(F)cc1Cl (stereo not shown) [Compound 160] :: 0.0
CC(C)N1C(=O)CSC1=Nc1cc(-n2c(=O)cc(C(F)(F)F)n(C)c2=O)c(F)cc1Cl [Compound 164] :: 1.0

Now for the compound whose Preemergence herbicidal rating TRZAWR we want.
Input: TRZAWR (Wheat, Winter, cv Riband) / Preemergence herbicidal rating TRZAWR / Cn1c(C(F)(F)F)cc(=O)n(-c2cc(N=C3SCC(=O)N3C3CCC3)c(Cl)cc2F)c1=O [Compound 168] : value?
Output: 0.0

###

Test system: AMBEL (Ragweed, Common)
PROTOCOL_SUMMARY: Postemergence herbicidal evaluation
Assay type: in vivo, Ambrosia artemisifolia
CONDITION_LABEL: Rate 0.0315 kg/ha
Reported Postemergence herbicidal rating AMBEL is given for each of the following molecules.
Respond numerically, and do not add a unit to the figure.

C=CCN1C(=O)C(CC(=O)OC)SC1=Nc1cc(-n2c(=O)cc(C(F)(F)F)n(C)c2=O)c(F)cc1Cl (stereo not drawn) [Compound 64] :: 9.0
CN1C(=O)C(CC(=O)O)SC1=Nc1cc(-n2c(=O)cc(C(F)(F)F)n(C)c2=O)c(F)cc1Cl (stereo not drawn) [Compound 63] :: 6.0
CCOC(=O)CN1CC(=O)N(CC(=O)OCC)C1=Nc1cc(-n2c(=O)cc(C(F)(F)F)n(C)c2=O)c(F)cc1Cl [Compound 34] :: 9.0
Cn1c(C(F)(F)F)cc(=O)n(-c2cc(N=C3NC(=O)CS3)c(Cl)cc2F)c1=O [Compound 39] :: 3.0
CCOC(=O)CN1C(=O)C(Cc2ccccc2OC)SC1=Nc1cc(-n2c(=O)cc(C(F)(F)F)n(C)c2=O)c(F)cc1Cl (stereo not drawn) [Compound 37] :: 9.0

Input: Lab note: need Postemergence herbicidal rating AMBEL with AMBEL (Ragweed, Common) for entry Cn1c(C(F)(F)F)cc(=O)n(-c2cc(/N=C3/SC(CC(=O)O)C(=O)N3CC(=O)O)c(Cl)cc2F)c1=O (stereo not drawn) [Compound 61] , please look it up.
Output: 0.0

###

Test system: ZEAMX (Corn, Field)
PROTOCOL_SUMMARY: Preemergence herbicidal evaluation
Type: in vivo, Zea mays
CONDITION_LABEL: preemergence, 0.0313 kg/ha, rated 4-5 weeks after treatment, 0-9 scale
OBSERVABLE: ZEAMX rating
Number only, please.

Example molecules with recorded ZEAMX rating:
C=CCN1C(=O)C(CC(=O)NS(C)(=O)=O)SC1=Nc1cc(-n2c(=O)cc(C(F)(F)F)n(C)c2=O)c(F)cc1Cl (stereo not shown) :: 0.0
CCOC(=O)CN1C(=O)C(CC(=O)NOC)SC1=Nc1cc(-n2c(=O)cc(C(F)(F)F)n(C)c2=O)c(F)cc1Cl (stereo not shown) :: 0.0
CN1C(=O)C(CC(=O)NS(=O)(=O)c2ccccc2)SC1=Nc1cc(-n2c(=O)cc(C(F)(F)F)n(C)c2=O)c(F)cc1Cl (stereo not shown) :: 0.0

We now examine a further molecule.
Input: ZEAMX rating for C=CCN1C(=O)C(CC(=O)OCCF)SC1=Nc1cc(-n2c(=O)cc(C(F)(F)F)n(C)c2=O)c(F)cc1Cl (stereo not shown) ?
Output: 0.0

###

Test system: GALAP (Galium)
PROTOCOL_SUMMARY: Preemergence herbicidal evaluation
Type: in vivo, Galium aparine
CONDITION_LABEL: rate 0.0156 kg/ha; rated 4-5 weeks after treatment
From the text: Results of herbicide evaluation are expressed on a rating scale (0-9). The scale is based upon a visual observation of plant stand, vigor, malformation, size, chlorosis and overall plant appearance as compared with a control. […] The compounds evaluated are reported by compound number given in Example 37.
OBSERVABLE: Preemergence herbicidal rating GALAP
# respond with the number and nothing more

Input: Entry "CC(C)COC(=O)CN1C(=O)CSC1=Nc1cc(-n2c(=O)cc(C(F)(F)F)n(C)c2=O)c(F)cc1Cl" : reported Preemergence herbicidal rating GALAP = ?
Output: 0.0

Input: Name the recorded Preemergence herbicidal rating GALAP for "Cn1c(C(F)(F)F)cc(=O)n(-c2cc(N=C3SCC(=O)N3CC(=O)OCC3CCCCC3)c(Cl)cc2F)c1=O" .
Output: 2.0

Input: Given the compound CCOC(=O)CN1C(=O)C(CC(=O)O)SC1=Nc1cc(-n2c(=O)cc(C(F)(F)F)n(C)c2=O)c(Cl)cc1Cl (centres unmarked) , what is its reported Preemergence herbicidal rating GALAP?
Output: 0.0

Input: Fill in the blank: the reported Preemergence herbicidal rating GALAP of CCOC(=O)CN1C(=O)C(Cc2ccccc2OCC(=O)O)S/C1=N/c1cc(-n2c(=O)cc(C(F)(F)F)n(C)c2=O)c(F)cc1Cl (centres unmarked) is ____.
Output: 0.0

Input: Which value of Preemergence herbicidal rating GALAP has been reported for "C[C@@H](C(=O)O)N1C(=O)CS/C1=N/c1cc(-n2c(=O)cc(C(F)(F)F)n(C)c2=O)c(F)cc1Cl" in the records?
Output: 0.0

Input: What does the record list as Preemergence herbicidal rating GALAP for C=CCN1C(=O)C(CC(=O)OC)SC1=Nc1cc(-n2c(=O)cc(C(F)(F)F)n(C)c2=O)c(F)cc1Cl (centres unmarked) ?
Output: 0.0

Input: I am curious: what Preemergence herbicidal rating GALAP value has been reported for "Cn1c(C(F)(F)F)cc(=O)n(-c2cc(N=C3SCC(=O)N3CC(=O)OC3CCCC3)c(Cl)cc2F)c1=O" ?
Output: 0.0

Input: Any idea what Preemergence herbicidal rating GALAP was measured for "CC(C)C[C@@H](C(=O)O)N1C(=O)CSC1=Nc1cc(-n2c(=O)cc(C(F)(F)F)n(C)c2=O)c(F)cc1Cl" ?
Output: 0.0
